Species on record: Rattus norvegicus
measurement protocol: Open TG-GATES - Regimen: Single
Type: toxicity, organism-based, Sprague-Dawley
Set-up: regimen Single, gender Male, age 6 weeks
reported conditions: in vivo, po, 100 mg/kg, 6 h, tissue Blood, route gavage, dose level Low
Consider the following compounds; for each one, report its MCHC.
Give bare numbers, in %.

| compound | MCHC (%) |
| --- | --- |
| C[C@H](CS)C(=O)N1CCC[C@H]1C(=O)O | 32.8 |
| CCc1cc(C(N)=S)ccn1 [ETHIONAMIDE] | 33.7 |
| O=C(O)c1cn(C2CC2)c2cc(N3CCNCC3)c(F)cc2c1=O | 33.2 |
| O=C(O)c1cc(/N=N/c2ccc(S(=O)(=O)Nc3ccccn3)cc2)ccc1O | 34.3 |

Problem: What measured MCHC goes with `Clc1ccccc1CN1CCc2sccc2C1` ?
Solution: 35.3
